# Species: Homo sapiens
# assay procedure: Relative ex vivo cytokine induction in human whole blood stimulated with 10 ug/mL (done by ELISA)for Interleukin (IL1-beta)
# Assay type: functional
measurement label: Induction
One number for each entry.

# return Induction for each item in the list
1. CCCCCCCCCCCC(=O)O[C@H](CCCCCCCCCCC)CC(=O)NC1C(O)OC(COC2OC(CO)C(OP(=O)(O)O)C(OC(=O)C[C@@H](CCCCCCCCCCC)OC(=O)CCCCCCCCCCC)C2NC(=O)C[C@@H](CCCCCCCCCCC)OC(=O)CCCCCCCCCCC)C(O)C1O.CCN(CC)CC (some centres undefined)
2. CCCCCCCCCCCCCCCC(=O)O[C@H](CCCCCCCCCCC)CC(=O)NC1C(O)OC(COC2OC(CO)C(OP(=O)(O)O)C(OC(=O)C[C@@H](CCCCCCCCCCC)OC(=O)CCCCCCCCCCCCC)C2NC(=O)C[C@@H](CCCCCCCCCCC)OC(=O)CCCCCCCCCCC)C(O)C1O.CCN(CC)CC (some centres undefined)
3. CCCCCCCCCCC[C@H](CC(=O)NC1C(O)OC(COC2OC(CO)C(OP(=O)(O)O)C(OC(=O)C[C@@H](CCCCCCCCCCC)OC(=O)CCCCCCCCC)C2NC(=O)C[C@@H](CCCCCCCCCCC)OC(=O)CCCCCCCCC)C(O)C1O)OC(=O)CCCCCCCCC.CCN(CC)CC (some centres undefined)
4. CCCCCCCCCCCCCC(=O)O[C@H](CCCCCCCCCCC)CC(=O)NC1C(O)OC(COC2OC(CO)C(OP(=O)(O)O)C(OC(=O)C[C@@H](CCCCCCCCCCC)OC(=O)CCCCCCCCCCCCC)C2NC(=O)C[C@@H](CCCCCCCCCCC)OC(=O)CCCCCCCCCCCCC)C(O)C1O.CCN(CC)CC (some centres undefined)

OUTPUT:
[2.9, 1.4, 7.3, 3.4]

====

Kindly supply the reported Fever response values for the records listed here.
# System: Oryctolagus cuniculus
# assay procedure: Total temperature rise in three rabbits at a dose of 10 ug/kg
# Format: functional
Answers are plain numbers, in °C.

[
  {
    "molecule": "CCCCCCCCCCCCCC(=O)O[C@H](CCCCCCCCCCC)CC(=O)NC1C(O)OC(COC2OC(CO)C(OP(=O)(O)O)C(OC(=O)C[C@@H](CCCCCCCCCCC)OC(=O)CCCCCCCCCCCCC)C2NC(=O)C[C@@H](CCCCCCCCCCC)OC(=O)CCCCCCCCCCCCC)C(O)C1O.CCN(CC)CC (some centres not stated)",
    "units symbol": "°C",
    "Fever response": 0.3
  },
  {
    "molecule": "CCCCCCCCCCC[C@H](CC(=O)NC1C(O)OC(COC2OC(CO)C(OP(=O)(O)O)C(OC(=O)C[C@@H](CCCCCCCCCCC)OC(=O)CCCCCCC)C2NC(=O)C[C@@H](CCCCCCCCCCC)OC(=O)CCCCCCC)C(O)C1O)OC(=O)CCCCCCC.CCN(CC)CC (some centres not stated)",
    "units symbol": "°C",
    "Fever response": 3.9
  },
  {
    "molecule": "CCCCCCCCCCC[C@H](CC(=O)NC1C(O)OC(COC2OC(CO)C(OP(=O)(O)O)C(OC(=O)C[C@@H](CCCCCCCCCCC)OC(=O)CCCCC)C2NC(=O)C[C@@H](CCCCCCCCCCC)OC(=O)CCCCC)C(O)C1O)OC(=O)CCCCC.CCN(CC)CC (some centres not stated)",
    "units symbol": "°C",
    "Fever response": 1.7
  }
]

# return Fever response for each item in the list
1. CCCCCCCCCCCCCCCC(=O)O[C@H](CCCCCCCCCCC)CC(=O)NC1C(O)OC(COC2OC(CO)C(OP(=O)(O)O)C(OC(=O)C[C@@H](CCCCCCCCCCC)OC(=O)CCCCCCCCCCCCC)C2NC(=O)C[C@@H](CCCCCCCCCCC)OC(=O)CCCCCCCCCCC)C(O)C1O.CCN(CC)CC (some centres not stated)
2. CCCCCCCCCCCC(=O)O[C@H](CCCCCCCCCCC)CC(=O)NC1C(O)OC(COC2OC(CO)C(OP(=O)(O)O)C(OC(=O)C[C@@H](CCCCCCCCCCC)OC(=O)CCCCCCCCCCC)C2NC(=O)C[C@@H](CCCCCCCCCCC)OC(=O)CCCCCCCCCCC)C(O)C1O.CCN(CC)CC (some centres not stated)
3. CCCCCCCCCCC[C@H](CC(=O)NC1C(O)OC(COC2OC(CO)C(OP(=O)(O)O)C(OC(=O)C[C@@H](CCCCCCCCCCC)OC(=O)CCCCCCCCC)C2NC(=O)C[C@@H](CCCCCCCCCCC)OC(=O)CCCCCCCCC)C(O)C1O)OC(=O)CCCCCCCCC.CCN(CC)CC (some centres not stated)
4. CCCCCCCCCCC[C@H](CC(=O)NC1C(O)OC(COC2OC(CO)C(OP(=O)(O)O)C(OC(=O)C[C@@H](CCCCCCCCCCC)OC(=O)CCC)C2NC(=O)C[C@@H](CCCCCCCCCCC)OC(=O)CCC)C(O)C1O)OC(=O)CCC.CCN(CC)CC (some centres not stated)

OUTPUT:
1. 0.6
2. 5.3
3. 4.1
4. 1.5

The measurements presented in this section are drawn from ChEMBL document CHEMBL1132185.
